- System: HOP-62 NSCLC
- method: NCI tumour cell line growth inhibition, 48 h; in the data active = GI50 below about 0.43 µM; inactive = the rest
Use one of these outcomes when replying: 1 = active, -1 = inactive

Recorded call for O=C(c1ccc2ccccc2c1)c1nc2cc(F)ccc2[n+]([O-])c1C(F)(F)F ?
-1

Called result for CCCCCCNCCCNc1c2cc(OC)ccc2nc2cccc([N+](=O)[O-])c12
1

Entry CCSc1ccc([C@@H]2[C@@H](O)C(=O)N2c2cc(OC)c(OC)c(OC)c2)cc1 : call = ?
1

Give the logged outcome of this assay for the following molecule: CC(NC(=O)Cc1ccc(C(F)(F)P(=O)(OCc2ccc([N+](=O)[O-])o2)N(C)CCCCCl)cc1)c1ccc(OCC2CCCCC2)c(C(N)=O)c1 (stereo unspecified)
-1

For this molecule, state the assay outcome: CCOC(=O)c1ccc(NC(=O)NC2=NCCS2)cc1
-1

Write down the call the test reported for this molecule. Item: COc1cc([C@@H]2c3cc4c(cc3[C@H](OC(C)=O)[C@H]3COC(=O)[C@@H]23)OCO4)cc(OC)c1OC
1

Record lookup: outcome of this test for C=C1C(=O)O[C@H]2[C@H]1CC/C(Cn1cc(-c3ccc(N)cc3)nn1)=C\CC[C@@]1(C)O[C@@H]21 ?
-1

Hello, I am checking results. What call was entered for O=C1c2cccnc2-c2nc(-c3cccnc3)cc3c2c1nc1ccccc13 ?
-1

Status in this test for Cc1cn(-c2cccc(NC(=O)c3ccc(C)c(Nc4nccc(-c5cccnc5)n4)c3)c2)cn1 ?
-1

Just curious, what result did Clc1ccc(/C=C/c2ccc3ccccc3n2)cc1 get here?
-1

---

- System: SK-MEL-5 melanoma
- method: NCI tumour cell line growth inhibition, 48 h
measuredMetric: TGI (µM)
Numbers only, in µM.

Clc1ccc2c(NCCCCN3OC3c3ccccc3)ccnc2c1 (stereo unspecified): 11.4

List the reported TGI of each compound below.
1. N#CC1=C(N)N(/N=C/c2ccccc2)C(c2ccccc2)C1(C#N)C#N (stereo unspecified)
2. CSc1ncnc2c1ncn2CC(=O)C1CCC2C3CCC4=CC(=O)CCC4(C)C3CCC12C (stereo unspecified)
3. COc1cc(F)ccc1-c1cc(Nc2cc(CS(C)(=N)=O)ccn2)ncc1F (stereo unspecified)
4. CN(Cc1ccc(F)cc1)c1ccc(CO)c(Cl)c1
5. CC(=O)C(C(=O)c1ccc(C)cc1)[C@H]1OC(C)(C)O[C@H]1[C@H]1COC(C)(C)O1 (stereo partly specified)
6. COc1ccc2c(c1)CN([C@@H](C)[C@H]1CC[C@H]3[C@@H]4CC[C@H]5C[C@@H](O)CC[C@]5(C)[C@H]4CC[C@]13C)CO2
7. CCSc1ccc([C@@H]2[C@@H](O)C(=O)N2c2cc(OC)c(OC)c(OC)c2)cc1

30.9
5.15
14.3
22.8
12.2
3.28
0.433

# return TGI for each item in the list
1. CC(O)c1cc2c(s1)C(=O)c1c(C(C)O)csc1C2=O (stereo unspecified)
2. COC1(C2c3ccccc3CCN2C(=O)OC(C)(C)C)C(=O)C(c2ccccc2)=C1N(C)C (stereo unspecified)

1. 0.0716
2. 58.9

---

- Test system: OVCAR-5 ovarian
- method: NCI tumour cell line growth inhibition, 48 h
Could you please report measured TGI for the items listed next?
Numbers only, in µM.

Solved entries (count: 4):
N#CC1=C(N)N(/N=C/c2ccccc2)C(c2ccccc2)C1(C#N)C#N (configuration not stated): 39.4
CC(O)c1cc2c(s1)C(=O)c1c(C(C)O)csc1C2=O (configuration not stated): 1.35
CC(NC(=O)Cc1ccc(C(F)(F)P(=O)(OCc2ccc([N+](=O)[O-])o2)N(C)CCCCCl)cc1)c1ccc(OCC2CCCCC2)c(C(N)=O)c1 (configuration not stated): 33.1
O=C(N=Nc1ccc(Cl)cc1Cl)NNc1ccc(Cl)cc1Cl: 44

In plain terms, COc1cc(C(=O)Oc2c(C(C)=O)sc3c2c(=O)n(-c2ccccc2)c(=S)n3-c2ccccc2)cc(OC)c1OC has a documented TGI of 43.2
